# Test system: phosphorylation of AKT (pAKT) in T47D cells expressing mutant PI3Ka (H1047R)
# measurement.protocol: In vitro cell pAKT (Ser473) HTRF, T47D cells
# Assay type: cell-based
# test.context: cellular pAKT, T47D cells, mutant PI3Ka (H1047R), 6 hours; read-out: Avg T-47D IC50
pIC50: −log10 of the molar value.
readout.name: pIC50

{"columns": ["compound", "readout.name", "value.observed"],
 "data": [
  ["Cc1cc([C@@H](C)Nc2ccccc2C(=O)O)c2cc(N3CCn4c(cnc4C(F)(F)F)C3)n(C)c(=O)c2c1", "pIC50", "6.30 to 9.00"],
  ["Cc1cc(C(C)Nc2ccccc2C(=O)O)c2cc(N3CCC4(CCN(CC(F)(F)F)CC4)CC3)n(C)c(=O)c2c1 (single isomer, unassigned) [Example 111]", "pIC50", "6.30 to 9.00"],
  ["Cc1cc(C(C)Nc2ccccc2C(=O)O)c2cc(N3CCN(CC(F)(F)F)CC3)n(C)c(=O)c2c1 (stereo not shown) [Example 61]", "pIC50", "6.30 to 9.00"],
  ["Cc1cc(C(C)Nc2ccccc2C(=O)O)c2cc(N3Cc4ccc(F)c(F)c4C3)n(C)c(=O)c2c1 (single isomer, unassigned) [Example 177]", "pIC50", "< 4.82"],
  ["C[C@@H](Nc1ccccc1C(=O)O)c1cc(F)cc2c(=O)n(C)c(-c3cnc(-c4cc(F)c(F)cc4F)c(F)c3)cc12", "pIC50", "6.30 to 9.00"],
  ["Cc1cc(C(C)Nc2ccc(Cl)nc2C(=O)O)c2cc(C3=CCC(C)(C)CC3)n(C)c(=O)c2c1 (single isomer, unassigned) [Example 23]", "pIC50", "5.70 to 6.30"],
  ["COc1ccc(-c2cc3c(C(C)Nc4ccccc4C(=O)O)cc(C)cc3c(=O)n2C)cn1 (single isomer, unassigned) [Example 156]", "pIC50", "4.82 to 5.70"],
  ["CC(Nc1cccc(F)c1C(=O)O)c1cc(F)cc2c(=O)n(C)c(-c3ccc(OC4CC(F)C4)nc3)cc12 (stereo not shown)", "pIC50", "6.30 to 9.00"],
  ["Cc1cc(C(C)Nc2ccccc2C(=O)O)c2cc(N3CC(C)(O)C3)n(C)c(=O)c2c1 (single isomer, unassigned) [Example 181]", "pIC50", "< 4.82"],
  ["Cc1cc(C(C)Nc2ccccc2C(=O)O)c2cc(N3CCN(C(=O)OC(C)C)CC3)n(C)c(=O)c2c1 (single isomer, unassigned) [Example 149]", "pIC50", "6.30 to 9.00"],
  ["Cc1cc(C(C)Nc2ccccc2C(=O)O)c2cc(N3C[C@@H]4CN(CC(F)(F)F)C[C@H]4C3)n(C)c(=O)c2c1 (single isomer, unassigned) [Example 108]", "pIC50", "< 4.82"],
  ["Cc1cc(C(C)Nc2ccccc2C(=O)O)c2cc(N3CC4CCCC(C4)C3)n(C)c(=O)c2c1 (stereo not shown)", "pIC50", "5.70 to 6.30"],
  ["Cc1cc(C(C)Nc2ccccc2C(=O)O)c2cc(-c3ccc(C)nc3)n(C)c(=O)c2c1 (single isomer, unassigned) [Example 20]", "pIC50", "< 4.82"],
  ["Cc1cc(C(C)Nc2ccccc2C(=O)O)c2cc(N3CCN4C(=O)OC[C@H]4C3)n(C)c(=O)c2c1 (single isomer, unassigned) [Example 142]", "pIC50", "4.82 to 5.70"],
  ["Cc1ccc(N[C@H](C)c2cc(F)cc3c(=O)n(C)c(C4CC4C4CC4)cc23)c(C(=O)O)n1 (stereo in doubt) [Example 45]", "pIC50", "5.70 to 6.30"],
  ["Cc1cc([C@@H](C)Nc2ccccc2C(=O)O)c2cc(N3CCN(CC(F)(F)C4CC4)CC3)n(C)c(=O)c2c1", "pIC50", "6.30 to 9.00"],
  ["Cc1cc(C(C)Nc2ccccc2C(=O)O)c2cc(N3CCN(c4ccc(C)nc4)CC3)n(C)c(=O)c2c1 (single isomer, unassigned)", "pIC50", "< 4.82"],
  ["Cc1cc(C(C)Nc2ccccc2C(=O)O)c2cc(N3CCC4(CCN(CC(F)(F)F)C4)CC3)n(C)c(=O)c2c1 (single isomer, unassigned) [Example 96]", "pIC50", "6.30 to 9.00"],
  ["Cc1cc(C(C)Nc2ccccc2C(=O)O)c2cc(-c3ccc(OC4CC(F)C4)nc3)n(C)c(=O)c2c1 (stereo not shown)", "pIC50", "6.30 to 9.00"],
  ["CC(Nc1ccccc1C(=O)O)c1cc(F)cc2c(=O)n(C)c(-c3ccc(OCC(F)F)nc3)cc12 (stereo not shown)", "pIC50", "6.30 to 9.00"],
  ["Cc1cc(C(C)Nc2ccccc2C(=O)O)c2cc(N3CC4(CCN(CC(F)(F)F)CC4)C3)n(C)c(=O)c2c1 (stereo not shown)", "pIC50", "6.30 to 9.00"],
  ["Cc1cc(C(C)Nc2ccccc2C(=O)O)c2cc(N3Cc4cccc(C(F)(F)F)c4C3)n(C)c(=O)c2c1 (single isomer, unassigned) [Example 93]", "pIC50", "< 4.82"],
  ["Cc1cc(C(C)Nc2ccccc2C(=O)O)c2cc(N3Cc4cccnc4C3)n(C)c(=O)c2c1 (single isomer, unassigned) [Example 19]", "pIC50", "6.30 to 9.00"],
  ["Cc1cc([C@@H](C)Nc2ccc(Cl)c(F)c2C(=O)O)c2cc(N3CCN(CC(F)(F)F)CC3)n(C)c(=O)c2c1", "pIC50", "5.70 to 6.30"],
  ["Cc1cc(C(C)Nc2ccccc2C(=O)O)c2cc(N3CCN4C(=O)OC[C@H]4C3)n(C)c(=O)c2c1 (single isomer, unassigned) [Example 141]", "pIC50", "< 4.82"]
]}
